# test-target: Induced myeloid leukemia cell differentiation protein Mcl-1 (Homo sapiens)
# Sequence (Q07820 whole entry): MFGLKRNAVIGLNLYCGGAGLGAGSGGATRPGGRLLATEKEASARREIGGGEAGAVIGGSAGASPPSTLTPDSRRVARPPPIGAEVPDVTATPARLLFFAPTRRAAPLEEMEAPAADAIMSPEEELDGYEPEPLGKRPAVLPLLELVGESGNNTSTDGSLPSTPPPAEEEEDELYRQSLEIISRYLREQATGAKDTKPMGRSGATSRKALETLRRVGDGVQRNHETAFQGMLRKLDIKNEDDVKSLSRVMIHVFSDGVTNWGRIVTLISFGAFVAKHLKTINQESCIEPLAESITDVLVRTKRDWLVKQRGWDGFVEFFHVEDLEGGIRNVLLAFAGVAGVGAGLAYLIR
# Format: functional
Activity calls are given as the source filed them.
measurement-label: IC50

Sample records with IC50:
- molecule-smiles: "COc1ccc(CCNC(=O)COC(=O)Cc2cccc3ccccc23)cc1"
  IC50: "26.3 µM (not active)"
- molecule-smiles: "CSc1ccc(/C=N/Nc2cccc(C(=O)O)c2)cc1"
  IC50: "2.19 µM (active)"
- molecule-smiles: "COc1cc(/C=C2/C(=O)c3cccc([N+](=O)[O-])c3C2=O)c(Br)cc1O"
  IC50: "1.39 µM (active)"
- molecule-smiles: "COCCNC(=O)Nc1ccc2nc(-c3ccco3)c(-c3ccco3)nc2c1"
  IC50: "0.831 µM (active)"
- molecule-smiles: "O=C(Nc1ccc([N+](=O)[O-])cc1)Nc1nc(-c2ccc(Cl)s2)cs1"
  IC50: "5.32 µM (active)"

Attention now turns to another entry.
Ask: Assign IC50 to the following record: CCOC(=O)/C=C(\C)Sc1cc(O)c2ccccc2c1O
Reply: 10.5 µM (active)

###

# test-target: 26S proteasome non-ATPase regulatory subunit 14 (Homo sapiens)
# Sequence (O00487 whole entry): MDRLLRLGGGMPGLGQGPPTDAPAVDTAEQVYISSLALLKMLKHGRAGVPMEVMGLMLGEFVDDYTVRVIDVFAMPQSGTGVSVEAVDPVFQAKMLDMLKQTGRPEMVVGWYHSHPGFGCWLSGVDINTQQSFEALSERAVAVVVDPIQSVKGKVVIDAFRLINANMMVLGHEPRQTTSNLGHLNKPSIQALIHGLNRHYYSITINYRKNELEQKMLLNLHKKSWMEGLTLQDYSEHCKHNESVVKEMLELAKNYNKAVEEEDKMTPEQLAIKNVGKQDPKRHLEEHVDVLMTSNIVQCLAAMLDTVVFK
# experiment: inhibition of proteasome subunit RPN11 – biochemical, fluorescence polarization, uHTS hits, confirmation (AID 602368)
# Type: functional
Calls of active or inactive are those of the source.
Below, each of the molecules is paired with its reported IC50 value.

Sample records with IC50:
- molecule-smiles: "CCOc1cc(/C=C2\\SC(=S)N(NC(=O)c3cccnc3)C2=O)ccc1O"
  test-target: "26S proteasome non-ATPase regulatory subunit 14 (Homo sapiens)"
  data-value: "25.8 µM (active)"
- molecule-smiles: "O=C(/C=C/c1ccco1)Nc1cccc(C(=O)Nc2ccccc2C(=O)O)c1"
  test-target: "26S proteasome non-ATPase regulatory subunit 14 (Homo sapiens)"
  data-value: "23.1 µM (active)"
- molecule-smiles: "O=C(N/N=C/c1cc([N+](=O)[O-])ccc1O)c1cc(-c2ccccc2)nc2ccccc12"
  test-target: "26S proteasome non-ATPase regulatory subunit 14 (Homo sapiens)"
  data-value: "14.8 µM (active)"

Attention now turns to another entry.
Ask: Consider the molecule Cc1cc(C)c2c(N)c(C(=O)N/N=C/c3cccs3)sc2n1 tested on 26S proteasome non-ATPase regulatory subunit 14 (Homo sapiens); state its IC50.
Reply: 8.64 µM (active)

###

# test-target: Polyadenylate-binding protein 1 (Homo sapiens)
# Sequence (P11940 whole entry, the tested form may be a part): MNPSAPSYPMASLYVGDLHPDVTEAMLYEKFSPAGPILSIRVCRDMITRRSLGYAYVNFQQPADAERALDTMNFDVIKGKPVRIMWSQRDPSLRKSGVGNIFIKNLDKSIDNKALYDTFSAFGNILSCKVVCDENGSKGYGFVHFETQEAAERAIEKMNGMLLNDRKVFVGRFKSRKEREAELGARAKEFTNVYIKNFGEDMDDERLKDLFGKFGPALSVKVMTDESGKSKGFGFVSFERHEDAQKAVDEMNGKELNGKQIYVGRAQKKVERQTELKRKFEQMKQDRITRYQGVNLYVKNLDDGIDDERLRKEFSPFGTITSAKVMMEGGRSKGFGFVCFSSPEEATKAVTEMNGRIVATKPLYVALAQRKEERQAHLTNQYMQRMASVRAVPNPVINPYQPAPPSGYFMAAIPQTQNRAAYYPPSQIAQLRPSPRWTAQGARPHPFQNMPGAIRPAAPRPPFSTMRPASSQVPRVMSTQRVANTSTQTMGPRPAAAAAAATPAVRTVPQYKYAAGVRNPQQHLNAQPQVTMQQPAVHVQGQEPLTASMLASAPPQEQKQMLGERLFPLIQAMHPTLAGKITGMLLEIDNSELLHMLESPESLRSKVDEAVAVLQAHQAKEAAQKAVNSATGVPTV
# experiment: MLLE domain peptide-binding blockers, IC50 – biochemical, fluorescence polarization, FITC-PAM2 peptide, dose response (AID 602259)
# Type: functional
# condition-set: read-out: IC50_Mean
Activity calls are given as the source filed them.
Below, each of the compounds is paired with its reported IC50 value.

Sample records with IC50:
- molecule-smiles: "CCOC(=O)c1c(N)sc(=S)c2c1CCC2"
  IC50: "> 66 µM (inactive)"
- molecule-smiles: "CCOc1cccc(=O)c2c(C)oc(C)c12"
  IC50: "41.6 µM (inactive)"
- molecule-smiles: "Cc1cc2cc(CN3C(=O)c4ccccc4C3=O)ccc2n1C"
  IC50: "55.2 µM (inactive)"

Ask: Assign IC50 to the following record: CSc1ccccc1N=C(S)Nc1ccc(S(N)(=O)=O)cc1
Reply: > 66 µM (inactive)

Ask: Assign IC50 to the following record: COCCNC(=O)Nc1ccc2nc(-c3ccco3)c(-c3ccco3)nc2c1
Reply: 39.2 µM (inactive)

Ask: Assign IC50 to the following record: CCN1C(=O)/C(=C2\SC(=S)N(NC(=O)c3ccccc3O)C2=O)c2ccccc21
Reply: > 66 µM (inactive)

Ask: Assign IC50 to the following record: Cc1cc[n+](-c2[n-]c(=O)sc2C=NNC(=O)c2ccccc2)cc1
Reply: > 66 µM (inactive)

Ask: Assign IC50 to the following record: CCOC(=O)CNc1nnc(SCC(=O)OCC)[nH]c1=O
Reply: > 66 µM (inactive)

Ask: Assign IC50 to the following record: CCC(C)(C)n1nnnc1CN(Cc1ccco1)Cc1cc2cc3c(cc2nc1O)OCO3
Reply: > 66 µM (inactive)

Ask: Assign IC50 to the following record: CCOC(=O)/C=C(\C)Sc1cc(O)c2ccccc2c1O
Reply: > 66 µM (inactive)

Ask: Assign IC50 to the following record: Cn1ccnc1P(=S)(c1nccn1C)N1CCOCC1
Reply: > 66 µM (inactive)
